test.target: T1, DLG3_1, Q92796
T1 sequence (Q92796 125-227, limits assumed, looked up): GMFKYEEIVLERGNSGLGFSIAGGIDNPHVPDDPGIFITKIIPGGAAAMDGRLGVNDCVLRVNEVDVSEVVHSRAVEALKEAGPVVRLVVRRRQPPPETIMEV
assay.method.text: holdup assay
Design: key: below the threshold = too weak to quantify, mostly under pKd 3.1 to 4
condition: plain residues with an end cap or a label only (N-terminal biotin on a linker: ahx)
property.measured: pKd

A selection of reference data follows.
SAPATLSSRA [PDLIM2, Q96JY6] | below the threshold
ADENEQVSAV [RAPGEF6, Q8TEU7] | below the threshold
VNENQKEYFF [CNTNAP4, Q9C0A0] | below the threshold
PKMKLNETSF [SHKBP1, Q8TBC3] | below the threshold

Challenge: What value of pKd has been reported for the following binder? KEYDDELTFF [USH1C, Q9Y6N9]
Response given: below the threshold
